All figures here come from ChEMBL document CHEMBL3870326.

test protocol: AUC (0 to 24 hrs) in Wistar rat plasma at 1 mg/kg, iv by LC-MS/MS analysis
Assay type: ADME, organism-based
Design: time < 24 hr, dose 1 mg/kg, route intravenous
property name: AUC(0-t) at 24 h (ng·h/mL)
Value expressed in ng·h/mL; do not type the unit.

Ask: Look up AUC(0-t) at 24 h for this compound: CN(Cc1cccc(-c2ccc(N3CCOCC3)cc2)c1)C(=O)CN.O=C(O)C(=O)O
Reply: 127

---

test protocol: in vitro
condition info: PAMPA, pH 6.5
property name: Papp at 2 h, 50 µM (×10⁻⁶ cm/s)
Value expressed in ×10⁻⁶ cm/s; do not type the unit.

Ask: Look up Papp at 2 h, 50 µM for this compound: CCN(CC)C(=O)c1ccc(-c2cccc(CN(C)C(=O)CN)c2)cc1.O=C(O)C(=O)O
Reply: 3.8

Ask: Entry to check: CN(Cc1cccc(-c2ccc(N3CCOCC3)cc2)c1)C(=O)CN.O=C(O)C(=O)O
Reply: 22.1

---

test protocol: Total clearance in Wistar rat plasma at 1 mg/kg, iv by LC-MS/MS analysis
Assay type: ADME, organism-based
property name: clearance (mL/min/kg)
Value expressed in mL/min/kg; do not type the unit.

Ask: Look up clearance for this molecule: CN(Cc1cccc(-c2ccc(N3CCOCC3)cc2)c1)C(=O)CN.O=C(O)C(=O)O
Reply: 134

---

test protocol: Oral bioavailability in Wistar rat plasma at 1 mg/kg by LC-MS/MS analysis
Assay type: ADME, organism-based
property name: bioavailability (%)
Value expressed in %; do not type the unit.

Ask: Look up bioavailability for this compound: CN(Cc1cccc(-c2ccc(N3CCOCC3)cc2)c1)C(=O)CN.O=C(O)C(=O)O
Reply: 54.9

---

test protocol: Cmax in Wistar rat plasma at 1 mg/kg, po by LC-MS/MS analysis
Format: ADME, organism-based
Parameters: dose 1 mg/kg, route oral
property name: Cmax (ng/mL)
Value expressed in ng/mL; do not type the unit.

Ask: Look up Cmax for this compound: CN(Cc1cccc(-c2ccc(N3CCOCC3)cc2)c1)C(=O)CN.O=C(O)C(=O)O
Reply: 73.4

---

test protocol: AUC (0 to 24 hrs) in Wistar rat plasma at 1 mg/kg, po by LC-MS/MS analysis
Format: ADME, organism-based
Set-up: dose 1 mg/kg, time < 24 hr, route oral
property name: AUC(0-t) at 24 h (ng·h/mL)
Value expressed in ng·h/mL; do not type the unit.

Ask: Look up AUC(0-t) at 24 h for this compound: CN(Cc1cccc(-c2ccc(N3CCOCC3)cc2)c1)C(=O)CN.O=C(O)C(=O)O
Reply: 69.6

---

test protocol: Half life in Wistar rat plasma at 1 mg/kg, po by LC-MS/MS analysis
Assay type: ADME, organism-based
property name: half-life (min)
Value expressed in min; do not type the unit.

Ask: Look up half-life for this compound: CN(Cc1cccc(-c2ccc(N3CCOCC3)cc2)c1)C(=O)CN.O=C(O)C(=O)O
Reply: 34.8
